Assay: qHTS for Inhibitors of the vitamin D receptor (VDR): Hit Validation using a Cytotoxicity Assay (AID 602204); further: nearly all actives have a fitted effect of over 75% in size;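 on Potency: cells co-treated with VDR agonist LG190178 at 300 nM; potency means the concentration at half of the fitted maximal effect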
Conditions: cytotoxicity counter-screen, cell viability; series mostly up to 48.3 µM
From the text: The vitamin D receptor (VDR) is a ligand-activated transcription factor and is partially responsible for the regulation of the endocrine system. […] In a collaboration between the University of Wisconsin, Milwaukee and the NIH Chemical Genomics Center (NCGC) a HTS-compatible enzymatic assay was developed. The assay uses fluorescence polarization as its read-out to measure the inhibition between VDR and coregulator peptide SRC2-3 exerted by small molecules. […] Step 8: Read luminescence
This is one part of the list. Results filed as inconclusive are left out. Calls of active or inactive are those of the source. The call rests on the fitted dose curve; in most records, active means well fitted cell-killing curve with a large enough effect; inconclusive means small, poorly fitted or top-dose-only effect, or effect the other way; inactive means no such curve, though single readings can be large or run the other way.
quantity.measured: Potency

[[record]]
compound = "CCOc1ccc(N(Cc2ccccc2)C(=O)c2nc(S(C)(=O)=O)ncc2Cl)cc1"
quantity_measured = "Potency"
readout_value = "16.8 µM (active)"

[[record]]
compound = "COc1ccc(CS(=O)/C(Cl)=C(/Cl)C(=O)Nc2ccc(OC)nc2)cc1 (stereo not drawn)"
quantity_measured = "Potency"
readout_value = "2.59 µM (active)"

[[record]]
compound = "O=[N+]([O-])/C=C/c1ccc2c(ccn2Cc2ccccc2)c1"
quantity_measured = "Potency"
readout_value = "9.2 µM (active)"

[[record]]
compound = "COc1ccc(OCc2nnc3n2N=C(c2ccccc2)C(CC(=O)O)S3)cc1 (stereo not drawn)"
quantity_measured = "Potency"
readout_value = "inactive"

[[record]]
compound = "Cc1cccc(CS(=O)(=O)c2ncc(Cl)c(C(=O)Nc3ccc(F)cc3)n2)c1"
quantity_measured = "Potency"
readout_value = "11.2 µM (active)"

[[record]]
compound = "C=CCOc1ccc(/C=C2/C(=O)ON=C2C)cc1OCC"
quantity_measured = "Potency"
readout_value = "inactive"

[[record]]
compound = "C[C@@H](NC(=O)OC(C)(C)C)c1nnc(S(=O)(=O)Cc2ccccc2)o1"
quantity_measured = "Potency"
readout_value = "inactive"

[[record]]
compound = "Cc1ccc(-c2nc3ccccn3c2Nc2c(C)cccc2C)o1"
quantity_measured = "Potency"
readout_value = "inactive"


---

target: Retinoic acid receptor RXR-alpha (Homo sapiens) (UniProt P19793); assay: qHTS assay for small molecule antagonists of retinoid X receptor alpha signaling (AID 588546); conditions: HEK293T RXRa-UAS-bla, beta-lactamase ratio, antagonist mode;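 further: cells stimulated with 9-cis-retinoic acid as agonist; on the % scale 0 is the no-effect control and ±100 the full control effect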
Sequence (P19793 whole entry, looked up): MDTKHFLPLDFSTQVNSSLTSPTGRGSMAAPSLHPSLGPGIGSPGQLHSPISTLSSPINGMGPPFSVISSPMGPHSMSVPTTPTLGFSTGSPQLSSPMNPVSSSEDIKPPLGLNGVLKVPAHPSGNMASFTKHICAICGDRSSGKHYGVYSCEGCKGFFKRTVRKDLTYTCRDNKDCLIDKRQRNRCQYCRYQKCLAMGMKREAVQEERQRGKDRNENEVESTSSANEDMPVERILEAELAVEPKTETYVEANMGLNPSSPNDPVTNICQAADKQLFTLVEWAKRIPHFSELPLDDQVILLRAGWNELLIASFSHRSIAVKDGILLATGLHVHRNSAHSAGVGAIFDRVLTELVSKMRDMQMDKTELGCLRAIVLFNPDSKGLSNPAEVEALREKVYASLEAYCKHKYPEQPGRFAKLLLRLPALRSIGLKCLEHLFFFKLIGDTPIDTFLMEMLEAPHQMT
Results filed as inconclusive are left out.
Short version: max response at least -10% is condition met, less is condition not met.

[[record]]
compound = "O=c1oc(=O)c2cc3c(=O)oc(=O)c3cc12"
label_value = "condition not met"

[[record]]
compound = "CCCC[O][Al]([O]CCCC)[O]CCCC"
label_value = "condition not met"

[[record]]
compound = "O=C1CCC(C2CCCCC2)CC1"
label_value = "condition met"

[[record]]
compound = "Brc1ccc(Br)c(Br)c1"
label_value = "condition not met"

[[record]]
compound = "NNS(=O)(=O)c1ccc(Oc2ccc(S(=O)(=O)NN)cc2)cc1"
label_value = "condition met"

[[record]]
compound = "O=C1NC(=O)C(Cc2ccc(OCCN3COc4ccccc4C3=O)cc2)S1 (configuration not stated)"
label_value = "condition not met"

[[record]]
compound = "CCCCCCCC/C=C\\CCCCCCCCO"
label_value = "condition met"

[[record]]
compound = "c1ccc2cc3c(ccc4ccccc43)cc2c1"
label_value = "condition met"

[[record]]
compound = "CSc1ccc(Cl)cc1"
label_value = "condition met"

[[record]]
compound = "CC(C)(C)C1CCC(O)CC1 (configuration not stated)"
label_value = "condition met"

[[record]]
compound = "CCCCC(CC)COC(=O)CS (configuration not stated)"
label_value = "condition met"

[[record]]
compound = "O=C(O)c1cc2ccccc2cc1O"
label_value = "condition met"

[[record]]
compound = "CCCCCCCCCCCCCC(=O)OC"
label_value = "condition met"

[[record]]
compound = "CS(=O)(=O)c1ccc(Cl)cc1"
label_value = "condition not met"

[[record]]
compound = "CCCOC(=O)NCCCN(C)C"
label_value = "condition met"

[[record]]
compound = "CC(C)(N=C=O)c1cccc(C(C)(C)N=C=O)c1"
label_value = "condition not met"

[[record]]
compound = "CC(=O)CC(=O)Nc1ccccc1C"
label_value = "condition not met"

[[record]]
compound = "CCNc1nc(NC(C)CC)nc(OC)n1 (configuration not stated)"
label_value = "condition met"

[[record]]
compound = "O=C=NCCCCCCN=C=O"
label_value = "condition met"

[[record]]
compound = "CC(=O)OC1CCC(C(C)(C)C)CC1 (configuration not stated)"
label_value = "condition met"

[[record]]
compound = "Cc1ccc(C(=O)c2ccccc2)cc1"
label_value = "condition not met"

[[record]]
compound = "CC(C)CCCCCOC(=O)CS"
label_value = "condition met"

[[record]]
compound = "CC(C)=CCC[C@@H](C)[C@H]1CC[C@@]2(C)C3=C(CC[C@]12C)[C@@]1(C)CC[C@H](O)C(C)(C)[C@@H]1CC3"
label_value = "condition met"

[[record]]
compound = "C/C=C/C=C/CCCCCCCO"
label_value = "condition not met"

[[record]]
compound = "Oc1ccc2ccccc2c1N=Nc1ccccc1"
label_value = "condition not met"

[[record]]
compound = "O=C(Cl)c1ccc(C(=O)Cl)cc1"
label_value = "condition met"

[[record]]
compound = "O=C(OCCOCCOC(=O)c1ccccc1)c1ccccc1"
label_value = "condition met"

[[record]]
compound = "Clc1nc(Cl)c(Cl)c(Cl)c1Cl"
label_value = "condition not met"

[[record]]
compound = "Cc1ccc(N=Nc2c(O)ccc3ccccc23)c(C)c1"
label_value = "condition not met"

[[record]]
compound = "C=Cc1ccc(P(c2ccccc2)c2ccccc2)cc1"
label_value = "condition met"

[[record]]
compound = "c1ccc(B(c2ccccc2)c2ccccc2)cc1"
label_value = "condition not met"

[[record]]
compound = "CCC(O)OCCCOC (configuration not stated)"
label_value = "condition met"

[[record]]
compound = "Brc1ccc(Oc2ccc(Br)cc2)cc1"
label_value = "condition met"

[[record]]
compound = "CC(C)(C)[C@H](O)[C@H](Cc1ccc(Cl)cc1)n1cncn1"
label_value = "condition not met"

[[record]]
compound = "C=CCCCCCCCCCCCC"
label_value = "condition met"

[[record]]
compound = "NC(=O)Cc1cccc2ccccc12"
label_value = "condition not met"


---

assay: qHTS for Inhibitors of Plasmodium falciparum (HB3) proliferation (AID 504318); further: nearly all actives have a fitted effect of over 60% in size; conditions: P. falciparum HB3 in erythrocytes, SYBR Green DNA, 72 h; series mostly up to 7.21 µM
Records with an inconclusive call do not appear. Calls of active or inactive are those of the source. Calls come from the whole dose curve; as a rule, active = well fitted inhibition curve with a large enough effect; inconclusive = small, poorly fitted or top-dose-only effect; inactive = flat fitted curve, though single readings scatter.
Labels: active, inactive

[[record]]
molecule = "CCCCC1=CC2=CC(=O)C(C)(OC(=O)CC)C(=O)C2=CN1CCCN(CC)CC (stereo unspecified)"
label_value = "inactive"

[[record]]
molecule = "C=CCN1C=C2C(=O)C(C)(OC(=O)c3cnc4ccccc4n3)C(=O)C=C2C=C1/C=C/COC (stereo unspecified)"
label_value = "inactive"

[[record]]
molecule = "COC(=O)C1=C(C(=O)OC)[C@@H]2N(Cc3ccccc3)c3ccccc3[C@@]23C[C@@H](C(=O)OC)N(S(=O)(=O)c2ccc(C(F)(F)F)cc2)C3=N1"
label_value = "active"

[[record]]
molecule = "CCOC(=O)[C@@]1([C@@H](NC(=O)OC)c2cccc(F)c2)CCCC1=O"
label_value = "inactive"

[[record]]
molecule = "COC/C=C/C1=CC2=CC(=O)C(C)(OC(=O)c3cnc4ccccc4n3)C(=O)C2=CN1C1CCCC1 (stereo unspecified)"
label_value = "inactive"

[[record]]
molecule = "COC(=O)CCC(=O)OC1(C)C(=O)C=C2C=C(C3CC3)N(C(CO)CO)C=C2C1=O (stereo unspecified)"
label_value = "inactive"

[[record]]
molecule = "CCCCC1=CC2=C(c3ccco3)C(=O)C(C)(OC(=O)c3ccc(OC)cc3)C(=O)C2=CN1CCc1c[nH]c2ccccc12 (stereo unspecified)"
label_value = "inactive"

[[record]]
molecule = "CCCCc1nc2c(c3c1C[C@H](C)OC3)CN(C(=O)Cc1cccc(OC)c1)CC2"
label_value = "inactive"

[[record]]
molecule = "C=CCN1C=C2C(=O)C(C)(OC(=O)CC)C(=O)C=C2C=C1CCCC (stereo unspecified)"
label_value = "inactive"

[[record]]
molecule = "Cc1ccc(S(=O)(=O)N2CCc3nc(-c4ccccc4)c4c(c3C2)CO[C@@H](C)C4)cc1"
label_value = "inactive"

[[record]]
molecule = "COC(=O)CCC(=O)OC1(C)C(=O)C2=CN(CCc3c[nH]c4ccccc34)C(c3ccc(OC)cc3)=CC2=C(Br)C1=O (stereo unspecified)"
label_value = "inactive"


---

assay: qHTS assay for small molecule antagonists of retinoid X receptor alpha signaling (AID 588546); settings: HEK293T RXRa-UAS-bla, beta-lactamase ratio, antagonist mode; measured here: W530 green channel, cytotoxicity proxy;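 further: cells stimulated with 9-cis-retinoic acid as agonist; on the % scale 0 is the no-effect control and ±100 the full control effect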
Inconclusive results are not listed.
quantity.measured: max response

[[record]]
compound = "BrC1CCC(Br)C(Br)CCC(Br)C(Br)CCC1Br (configuration not stated)"
quantity_measured = "max response"
readout_value = "-2.96%"

[[record]]
compound = "O=C(O)C1(C(=O)Nc2ccc(Cl)cc2Cl)CC1"
quantity_measured = "max response"
readout_value = "8.82%"

[[record]]
compound = "O=c1[nH]sc2ccccc12"
quantity_measured = "max response"
readout_value = "-44.3%"

[[record]]
compound = "COC(=O)C(C)Oc1ccc(Oc2ncc(C(F)(F)F)cc2Cl)cc1 (configuration not stated)"
quantity_measured = "max response"
readout_value = "5.42%"

[[record]]
compound = "CS(C)=O"
quantity_measured = "max response"
readout_value = "-13.1%"

[[record]]
compound = "CCCCC/C=C\\C/C=C\\CCCCCCCC(=O)OC"
quantity_measured = "max response"
readout_value = "7.06%"

[[record]]
compound = "COCCOCCOCCO"
quantity_measured = "max response"
readout_value = "-2.04%"

[[record]]
compound = "OCc1cccc(Oc2ccccc2)c1"
quantity_measured = "max response"
readout_value = "-14.1%"

[[record]]
compound = "CCOCCOCCOCCO"
quantity_measured = "max response"
readout_value = "0.354%"

[[record]]
compound = "CCCCC(CC)CN1C(=O)C2C3C=CC(C3)C2C1=O (configuration not stated)"
quantity_measured = "max response"
readout_value = "8.85%"

[[record]]
compound = "CS/C(=N\\O)C(=O)N(C)C"
quantity_measured = "max response"
readout_value = "0.656%"

[[record]]
compound = "CC1(C)[C@@H](C=C(Cl)Cl)[C@@H]1C(=O)OCc1cccc(Oc2ccccc2)c1"
quantity_measured = "max response"
readout_value = "-10.2%"

[[record]]
compound = "N[C@@H]1[C@@H](O)[C@H](O)[C@@H](CO)O[C@H]1O"
quantity_measured = "max response"
readout_value = "-16.6%"

[[record]]
compound = "CC(=O)OC(C)(C)C1CC=C(C)CC1 (configuration not stated)"
quantity_measured = "max response"
readout_value = "-19.2%"

[[record]]
compound = "O=c1oc(=O)c2cc3c(=O)oc(=O)c3cc12"
quantity_measured = "max response"
readout_value = "2.24%"

[[record]]
compound = "C[Si](Cl)(Cl)[Si](C)(Cl)Cl"
quantity_measured = "max response"
readout_value = "-10.7%"

[[record]]
compound = "C#CCOC(=O)[C@@H](C)Oc1ccc(Oc2ncc(Cl)cc2F)cc1"
quantity_measured = "max response"
readout_value = "-4.05%"

[[record]]
compound = "CC(=O)CC(=O)Nc1ccccc1C"
quantity_measured = "max response"
readout_value = "14.1%"

[[record]]
compound = "CCC/C(=N\\OCC)C1=C(O)CC(O)(CC(C)S(=O)(=O)CC)CC1=O (configuration not stated)"
quantity_measured = "max response"
readout_value = "-7.24%"

[[record]]
compound = "CC1(C)C(=O)N(Br)C(=O)N1Cl"
quantity_measured = "max response"
readout_value = "-9.45%"

[[record]]
compound = "CC1(C)C(C=C(Cl)Cl)[C@H]1C(=O)OCc1cccc(Oc2ccccc2)c1 (some centres not stated)"
quantity_measured = "max response"
readout_value = "-16.1%"

[[record]]
compound = "C[Si](C)(C)N[Si](C)(C)C"
quantity_measured = "max response"
readout_value = "-10.7%"

[[record]]
compound = "CCO[Si](CCC#N)(OCC)OCC"
quantity_measured = "max response"
readout_value = "-13.6%"

[[record]]
compound = "COC(=O)c1ccc(I)cc1S(=O)(=O)NC(=O)Nc1nc(C)nc(OC)n1"
quantity_measured = "max response"
readout_value = "-4.15%"

[[record]]
compound = "CN(C)CCOCCN(C)C"
quantity_measured = "max response"
readout_value = "-5.51%"

[[record]]
compound = "C[N+](C)(C)CC(O)CCl (configuration not stated)"
quantity_measured = "max response"
readout_value = "-3.33%"

[[record]]
compound = "C=CCCCCCCCCCC"
quantity_measured = "max response"
readout_value = "-3.33%"

[[record]]
compound = "CCCCCCCCCCCCCCC(=O)OC"
quantity_measured = "max response"
readout_value = "-9.41%"

[[record]]
compound = "CCCCCCCC/C=C\\CCCCCCCCCCCCC"
quantity_measured = "max response"
readout_value = "-11.4%"

[[record]]
compound = "CCCCCCCCCCCCc1ccccc1"
quantity_measured = "max response"
readout_value = "-16.5%"

[[record]]
compound = "Fc1ccc(Br)cc1"
quantity_measured = "max response"
readout_value = "-8.4%"

[[record]]
compound = "CCCCOC(=O)c1ccccc1"
quantity_measured = "max response"
readout_value = "-1.79%"

[[record]]
compound = "Cc1ccc(N)c(S(=O)(=O)O)c1"
quantity_measured = "max response"
readout_value = "1.46%"

[[record]]
compound = "CC(=O)c1c(C)c([N+](=O)[O-])c(C(C)(C)C)c([N+](=O)[O-])c1C"
quantity_measured = "max response"
readout_value = "-24%"

[[record]]
compound = "C/C=C/C=C/CCCCCCCO"
quantity_measured = "max response"
readout_value = "19.5%"

[[record]]
compound = "CO[Si](CCCNCCN)(OC)OC"
quantity_measured = "max response"
readout_value = "-7.95%"

[[record]]
compound = "O=c1n(CCO)c(=O)n(CCO)c(=O)n1CCO"
quantity_measured = "max response"
readout_value = "-6.53%"

[[record]]
compound = "Cc1c(Cl)cccc1Cl"
quantity_measured = "max response"
readout_value = "-1.12%"

[[record]]
compound = "O=C(OCCOCCOC(=O)c1ccccc1)c1ccccc1"
quantity_measured = "max response"
readout_value = "-7.11%"

[[record]]
compound = "CCCCCCc1ccc(N)cc1"
quantity_measured = "max response"
readout_value = "-5.49%"

[[record]]
compound = "O=c1[nH]c(=O)c2[nH]cnc2[nH]1"
quantity_measured = "max response"
readout_value = "-4.54%"

[[record]]
compound = "CC(C)c1ccc(C(C)C)cc1"
quantity_measured = "max response"
readout_value = "-15.9%"

